# experiment description: solvent given as SMILES
# assay context: in ClCCl
assay endpoint: absorption maximum
Note to self: number, then unit, no commentary.

Prompt: Tell me its absorption maximum given COc1ccc(-c2ncccn2)cc1 as the entry.
Response: 283 nm

---

Each item that follows carries a reported absorption maximum.
# experiment description: solvent given as SMILES
# assay context: in ClC(Cl)Cl
// note: answer is a bare numeric in nm

CC(C)(C)c1ccc(Oc2cc3c4c(cc(Oc5ccc(C(C)(C)C)cc5)c5c6c(Oc7ccc(C(C)(C)C)cc7)cc7c8c(cc(Oc9ccc(C(C)(C)C)cc9)c(c2c45)c86)C(=O)N(c2ccccc2)C7=O)C(=O)N(c2ccccc2)C3=O)cc1 ... 586
CCCCCCN1C(=O)c2cccc3c(-c4ccc(OC)s4)ccc(c23)C1=O ... 407
CCNc1cc2c(cc1C)C(c1ccccc1C(=O)O)=C1CCCC(/C=C/C3=[N+](C)c4ccccc4C3(C)C)=C1O2 ... 702

Please find the next compound below.
Prompt: Tell me its absorption maximum given Cc1ccc(/C=N/c2cc(C(C)C)c(O)cc2C)cc1 as the entry.
Response: 346

---

# experiment description: solvent given as SMILES
# assay context: in CC(C)O
Each item that follows carries a reported absorption maximum.
// note: answer is a bare numeric in nm

Known absorption maximum results, listed for orientation:
COC(=O)c1ccc(-c2nc3ccc(N(C)C)cc3s2)cc1 ... 393
O=C1C=C(Nc2ccccc2)CCC1 ... 307
Nc1ccc2c(c1)C(=O)c1ccc(N)cc1C2=O ... 484
Cc1cc(=O)c2ccc(N)cc2o1 ... 327
COc1nc(Nc2ccc3c4c(cccc24)C(=O)c2ccccc2-3)nc(OC)n1 ... 421.94

Prompt: Tell me its absorption maximum given NS(=O)(=O)c1ccc(N2N=C(c3ccc(O)cc3)CC2c2ccc([N+](=O)[O-])cc2)cc1 (centres undefined) as the entry.
Response: 352

Prompt: Tell me its absorption maximum given Cc1ccc(-n2c(-c3ccccc3O)nc(-c3ccccc3O)c2-c2ccccc2O)cc1 as the entry.
Response: 303

---

# experiment description: solvent given as SMILES
# assay context: in CCCCCCCCO
assay endpoint: absorption maximum (nm)
// note: answer is a bare numeric in nm

Known absorption maximum results, listed for orientation:
COc1ccc(/C=C/c2ccc(-c3nnc(-c4ccc(-c5cc6ccccc6s5)cc4)o3)cc2)cc1 ... 347
CCC(=O)c1ccc2cc(N(C)C)ccc2c1 ... 360
CCOC(=O)/C=C/c1ccc(N(C)C)cc1 ... 363

Please find the next molecule below.
Prompt: Tell me its absorption maximum given CN(C)c1cccc2c1ccc1c(=O)oc(-c3ccc(C(F)(F)F)cc3)cc12 as the entry.
Response: 395

---

Each item that follows carries a reported absorption maximum.
# experiment description: solvent given as SMILES
# assay context: in CC#N
// note: answer is a bare numeric in nm

Known absorption maximum results, listed for orientation:
CCCCOc1ccc(/C=C/C=C/C=C/c2ccc([N+](=O)[O-])cc2)cc1 ... 413
Cc1cc(O)c(C(=O)/C=C/c2ccc([N+](=O)[O-])cc2)c(=O)o1 ... 358
COc1ccc(/C=C/C2=CC(/C=C/c3ccc(OC)c4ccccc34)=[O+][B-](F)(F)O2)c2ccccc12 ... 530
Oc1ccc2ccccc2c1-c1nc(-c2ccccc2)c2ccccn12 ... 355

Please find the next compound below.
Prompt: Tell me its absorption maximum given COC(=O)c1ccc(C#Cc2ccc(N(C)C)cc2)cc1 as the entry.
Response: 360.5
